Values compiled from patent US20220144937A1.

EXPERIMENTAL_TARGET: T1, human IL-5 with his-tag (rhIL-5-his) (human, UniProt P05113 20-134)
T1 sequence: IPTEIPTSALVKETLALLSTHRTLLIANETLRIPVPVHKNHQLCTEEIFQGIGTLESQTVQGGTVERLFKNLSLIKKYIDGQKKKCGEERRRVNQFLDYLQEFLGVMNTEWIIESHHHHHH
ASSAY_COMMENT: cell-based or functional assay
Define the label as satisfied when IC50 of inhibition of IL-5 induced TF1 cell proliferation is strictly less than 0.2 nM and as not satisfied in all remaining cases.

Lab log: compare recorded IC50 of inhibition of IL-5 induced TF1 cell proliferation with 0.2 nM; is it strictly lower for h1705-007 (antibody, human IgG1, kappa, V domains shown) VH: EVQLVESGGGLVQPGGSLRLSCAASGFTFSHYYMAWVRQAPGKGLEWVSSISYEGDITYYGDSVKGRFTISRDNSKNTLYLQMNSLRAEDTAVYYCASQTLRESFDYWGQGTLVTVSS VL: DIQMTQSPSSVSASVGDRVTITCRASQDIANYLSWYQQKPGKSPKLLIYGTSNLEVGVPSRFSGSRSGTDFTLTISSLQPEDFATYYCLQDKEFPRTFGGGTKVEIKR ?
not satisfied

Lab log: compare recorded IC50 of inhibition of IL-5 induced TF1 cell proliferation with 0.2 nM; is it strictly lower for h1780-017 (antibody, human IgG1, kappa, V domains shown) VH: EVQLVQSGAEVKKPGASVKVSCKASGYTFTEYLIHWVRQAPGQGLEWIGYINPYSGGTVYNEKFKSRATLTVDKSISTAYMEFSRLRSDDTAVYYCARDGGYSDPLDYWGQGTMVTVSS VL: DTVLTQSPATLSLSPGERATLSCRASEGLTSYMHWYQQKPGQAPRLLIYKASNLASGVPARFSGSGSGTDFTLTISSLEPEDFATYFCQQNWNDPWTFGGGTKVEIKR ?
satisfied

Lab log: compare recorded IC50 of inhibition of IL-5 induced TF1 cell proliferation with 0.2 nM; is it strictly lower for h1706-004 (antibody, human IgG1, kappa, V domains shown) VH: EVQLVESGGGLVQPGGSLRLSCAASGFTFSHYYMAWVRQAPGKGLEWVTSINYEGNSAYYGDSVKGRFTISRDNSKNTLYLQMNSLRAEDTATYYCATETLRESLDYWGQGTMVTVSS VL: DIQMTQSPSSVSASVGDRVTITCRASQDIGNYLSWYQQKPGKAPKLLIYSASNLEVGVPSRFSGSGSGTDFTLTISSLQPEDFATYYCLQHKQFPRTFGGGTKVEIKR ?
not satisfied

Lab log: compare recorded IC50 of inhibition of IL-5 induced TF1 cell proliferation with 0.2 nM; is it strictly lower for h1773-007 (antibody, human IgG1, kappa, V domains shown) VH: EVQLVESGGGLVQPGGSLKLSCAASGFTISNTYIHWVKQASGKGLEWIGRIDPAVGDTKHGPKFQGRFTISADDSKNTAYLQMNSLKTEDTAVYYCFRYGIYPDHWGQGTLVTVSS VL: DIQLTQSPSSLSASVGDRVTITCSASSSVNYIYWYQQKPGKSPKPWIYLTATLASGVPSRFSGSGSGTDFTLTISSLQPEDFATYYCQQWNSYPYTFGGGTKVEIKR ?
not satisfied
